Assay: Half life in dog
Type: ADME, organism-based, Canis lupus familiaris
Settings: in vivo
MEASUREMENT NAME: half-life (h)
One number for each entry, in h.

Request: Would you kindly share the measured half-life for CCCCCc1nc(-c2ccc(S(=O)(=O)Nc3ccc(CCNC[C@H](O)c4cccnc4)cc3)cc2)no1 ?
Result: 3.6

----------
Molecular target: Beta-3 adrenergic receptor (Homo sapiens)
Sequence (P13945 whole entry, looked up): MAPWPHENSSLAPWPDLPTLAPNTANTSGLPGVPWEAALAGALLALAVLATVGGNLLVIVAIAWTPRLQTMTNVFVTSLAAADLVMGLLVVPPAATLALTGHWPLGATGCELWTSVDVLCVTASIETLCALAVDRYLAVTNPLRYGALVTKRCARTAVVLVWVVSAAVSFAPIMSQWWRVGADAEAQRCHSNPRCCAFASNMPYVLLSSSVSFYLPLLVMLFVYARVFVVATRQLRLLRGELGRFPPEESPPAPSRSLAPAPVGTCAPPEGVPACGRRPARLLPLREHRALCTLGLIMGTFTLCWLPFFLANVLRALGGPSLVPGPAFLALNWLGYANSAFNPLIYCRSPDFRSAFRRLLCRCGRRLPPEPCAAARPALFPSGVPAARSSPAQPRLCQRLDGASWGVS
Assay: Adenylyl cyclase activation as percent maximal isoproterenol stimulation of CHO cells expressing beta-3 receptor
Format: functional, cell-based
Please respond with reported Activation for every item in the list.
Answers are plain numbers, in %.

COMPOUND: CCCCCCCCc1nc(-c2ccc(S(=O)(=O)Nc3ccc(CCNC[C@H](O)c4cccnc4)cc3)cc2)no1
ENDPOINT VALUE: 90

COMPOUND: CCCCCCc1nc(-c2ccc(S(=O)(=O)Nc3ccc(CCNC[C@H](O)c4cccnc4)cc3)cc2)no1
ENDPOINT VALUE: 79

COMPOUND: Cc1nc(-c2ccc(S(=O)(=O)Nc3ccc(CCNC[C@H](O)c4cccnc4)cc3)cc2)no1
ENDPOINT VALUE: 15

COMPOUND: CCC(O)CCc1nc(-c2ccc(S(=O)(=O)Nc3ccc(CCNC[C@H](O)c4cccnc4)cc3)cc2)no1 (stereo partly drawn)
ENDPOINT VALUE: 53

COMPOUND: CCCCc1nc(-c2ccc(S(=O)(=O)Nc3ccc(CCNC[C@H](O)c4cccnc4)cc3)cc2)no1
ENDPOINT VALUE: 86

For every item in the list below, what is its measured Activation?
1. CC(O)CCCc1nc(-c2ccc(S(=O)(=O)Nc3ccc(CCNC[C@H](O)c4cccnc4)cc3)cc2)no1 (stereo partly drawn)
2. CC(C)CCCc1nc(-c2ccc(S(=O)(=O)Nc3ccc(CCNC[C@H](O)c4cccnc4)cc3)cc2)no1
3. CCCc1nc(-c2ccc(S(=O)(=O)Nc3ccc(CCNC[C@H](O)c4cccnc4)cc3)cc2)no1

Result:
1. 20
2. 58
3. 70
